Task for the reader: assign each of the following sequences its reported PBM binding z-score.
Tested on: PPARg:RXRa DBDmut IVT, anti-RXR (DBD mutation: RXRa K156A/R161A, NR concentration 270 nM, RXRa partner concentration 90 nM)
Assay: PBM binding z-score (relative to random genomic background probes); higher = stronger binding; sequences stand for … in GC…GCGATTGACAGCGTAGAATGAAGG
Give bare numbers.

# polymer-sequence, PBM binding z-score
records = [
    ("ACTATTAGTTGTGACGAGGGCAACCGATAGGTTG", 0.298),
    ("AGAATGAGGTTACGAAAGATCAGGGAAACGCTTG", 4.25),
    ("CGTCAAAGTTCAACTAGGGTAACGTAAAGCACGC", 1.68),
    ("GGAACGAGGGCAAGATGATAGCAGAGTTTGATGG", 3.59),
    ("TCTATTAGTTGATTAGCGCAACCGAAACAGCGGA", 2.41),
]

Each of the following entries comes with a recorded value; kindly state PBM binding z-score for each.
1. CCTACTGTGCCAAGGTCATTGATCAGTCAAAGCA
2. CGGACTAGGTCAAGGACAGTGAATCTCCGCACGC
3. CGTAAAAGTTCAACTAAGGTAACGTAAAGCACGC
4. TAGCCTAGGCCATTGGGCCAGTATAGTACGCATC
5. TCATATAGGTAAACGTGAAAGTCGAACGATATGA

Result string:
1: 3.52; 2: 7.61; 3: 0.183; 4: -0.378; 5: 3.9

Each of the following entries comes with a recorded value; kindly state PBM binding z-score for each.
1. CGTACTGGGCCATTCAGAGGTCATTGATCATATG
2. CGTCCAACGTCATAGGAGGTCAGTGAAGACAGAT

Result string:
1. 5.14
2. 0.0965

----------
Tested on: LXRb:RXRa (NR concentration 270 nM, RXRa partner concentration 90 nM)
Assay: PBM binding z-score (relative to random genomic background probes); higher = stronger binding; sequences stand for … in GC…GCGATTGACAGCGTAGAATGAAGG
Label 1.0 when PBM binding z-score is at or above 0.8; otherwise label 0.0.

# polymer-sequence, qualitative-label
rows = [
    ("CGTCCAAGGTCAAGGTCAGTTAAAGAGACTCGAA", 1.0),
    ("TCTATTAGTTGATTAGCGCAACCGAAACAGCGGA", 0.0),
    ("ACTATTAGTTGAGACTAGGGCAACCGATAGGTTG", 0.0),
]

Query string: API: above_or_equal(metric=PBM binding z-score, cutoff=0.8) for item GCTGCTAGGTCAGGTTGGTCATCTAACGGGTACG
Result string: 0.0

Query string: API: above_or_equal(metric=PBM binding z-score, cutoff=0.8) for item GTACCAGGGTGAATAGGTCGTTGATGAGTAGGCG
Result string: 0.0

Query string: API: above_or_equal(metric=PBM binding z-score, cutoff=0.8) for item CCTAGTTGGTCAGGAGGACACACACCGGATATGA
Result string: 0.0

Query string: API: above_or_equal(metric=PBM binding z-score, cutoff=0.8) for item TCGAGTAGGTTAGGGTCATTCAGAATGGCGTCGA
Result string: 1.0

Query string: API: above_or_equal(metric=PBM binding z-score, cutoff=0.8) for item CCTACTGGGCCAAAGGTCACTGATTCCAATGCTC
Result string: 1.0

Query string: API: above_or_equal(metric=PBM binding z-score, cutoff=0.8) for item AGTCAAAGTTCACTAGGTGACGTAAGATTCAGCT
Result string: 1.0

Query string: API: above_or_equal(metric=PBM binding z-score, cutoff=0.8) for item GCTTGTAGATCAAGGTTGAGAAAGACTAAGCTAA
Result string: 0.0

----------
Task for the reader: assign each of the following sequences its reported PBM binding z-score.
Tested on: PPARg:RXRa 90nM:30nM, anti-RXR (NR concentration 90 nM, RXRa partner concentration 30 nM)
Assay: PBM binding z-score (relative to random genomic background probes); higher = stronger binding; sequences stand for … in GC…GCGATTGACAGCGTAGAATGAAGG
Give bare numbers.

Record excerpt, results attached:
# polymer-sequence, measurement-target, measured-number
measured = [
    ("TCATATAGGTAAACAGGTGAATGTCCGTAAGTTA", "PPARg:RXRa 90nM:30nM, anti-RXR (NR concentration 90 nM, RXRa partner concentration 30 nM)", 3.58),
    ("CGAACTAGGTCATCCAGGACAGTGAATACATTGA", "PPARg:RXRa 90nM:30nM, anti-RXR (NR concentration 90 nM, RXRa partner concentration 30 nM)", 6.05),
]

Each of the following entries comes with a recorded value; kindly state PBM binding z-score for each.
1. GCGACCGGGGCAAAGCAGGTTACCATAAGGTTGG
2. AGAACGAGGGCACTGAGTTGATAGCACGGGTGGC
3. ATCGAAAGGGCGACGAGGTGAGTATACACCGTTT
4. CCTAGTGGGCCATTCAGAGGTCATTGATCATATG

Result string:
[-0.143, 0.347, -0.136, 2.3]

----------
Test system: RARg homodimer (NR concentration 270 nM)
Assay: PBM binding z-score (relative to random genomic background probes); higher = stronger binding; sequences stand for … in GC…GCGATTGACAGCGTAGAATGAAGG
readout-type: PBM binding z-score
One number for each entry.

Record excerpt, results attached:
# polymer-sequence, PBM binding z-score
records = [
    ("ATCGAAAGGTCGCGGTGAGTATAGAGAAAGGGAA", 4.48),
    ("CCAGACAGGTGCGAAGGTAACTCAGCCTCGATTA", -0.243),
    ("CGTCAAAGTTCAAGGTAACGTCACAGAAAGCAGC", 6.15),
    ("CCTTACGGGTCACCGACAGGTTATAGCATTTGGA", 5.55),
    ("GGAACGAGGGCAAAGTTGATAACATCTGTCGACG", 1.97),
    ("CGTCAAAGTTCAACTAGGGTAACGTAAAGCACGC", 6.62),
]

Each of the following entries comes with a recorded value; kindly state PBM binding z-score for each.
1. GCGACTGGGGTATCAGCAGGTTACCATAACTTAA
2. GATACAGGGTCATGGCCAGAGTACGCGTATTGAT

Result string:
-0.199
5.09

Each of the following entries comes with a recorded value; kindly state PBM binding z-score for each.
1. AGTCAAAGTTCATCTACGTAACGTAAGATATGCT
2. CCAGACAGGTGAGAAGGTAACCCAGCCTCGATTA
3. TCCATTAGTTGATTAGGGCAACCGAAACAGCGGA
4. TAGCCTAGGTCATGCGCCAGTATACCACGCGAAC

Result string:
1. 6
2. 0.557
3. 0.556
4. 4.3

----------
Test system: RARb:RXRa (NR concentration 270 nM, RXRa partner concentration 90 nM)
Assay: PBM binding z-score (relative to random genomic background probes); higher = stronger binding; sequences stand for … in GC…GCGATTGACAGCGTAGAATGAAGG
readout-type: PBM binding z-score
Give bare numbers.

Record excerpt, results attached:
# polymer-sequence, PBM binding z-score
data = [
    ("CCTTACGGGTCACTCCGGGTTATAGCATCGGAGT", 3.37),
    ("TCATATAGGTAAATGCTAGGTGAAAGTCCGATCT", 0.642),
]

Each of the following entries comes with a recorded value; kindly state PBM binding z-score for each.
1. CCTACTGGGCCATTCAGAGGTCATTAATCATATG
2. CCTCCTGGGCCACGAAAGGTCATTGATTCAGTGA
3. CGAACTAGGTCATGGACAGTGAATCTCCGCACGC

Result string:
[2.88, 3.97, 3.61]

Query string: Give PBM binding z-score only, for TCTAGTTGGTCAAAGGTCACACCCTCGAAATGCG , using RARb:RXRa (NR concentration 270 nM, RXRa partner concentration 90 nM) data.
Result string: 5.02

----------
System: RARb:RXRa (NR concentration 270 nM, RXRa partner concentration 90 nM)
Experiment: PBM binding z-score (relative to random genomic background probes); higher = stronger binding; sequences stand for … in GC…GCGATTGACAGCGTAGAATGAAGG
Task for the reader: assign each of the following sequences its reported PBM binding z-score.
Numbers only.

Record excerpt, results attached:
# polymer-sequence, PBM binding z-score
rows = [
    ("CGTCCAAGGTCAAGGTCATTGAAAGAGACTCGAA", 5.56),
    ("TATTGTAGATCAGCAGGTTAAGAAAGCTGGCCAA", -0.104),
    ("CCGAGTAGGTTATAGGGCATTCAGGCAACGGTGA", 1.24),
    ("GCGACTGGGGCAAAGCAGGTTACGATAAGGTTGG", 0.879),
    ("CGTCCAAGGTGAGCAGGTCAGTGAAAGCGACGTG", 2.67),
]

Each of the following entries comes with a recorded value; kindly state PBM binding z-score for each.
1. CCTGCTAGGTCATGGTCCGCTAATCTACAGTATG
2. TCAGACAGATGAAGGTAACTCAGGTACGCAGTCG
3. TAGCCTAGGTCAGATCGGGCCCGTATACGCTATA
4. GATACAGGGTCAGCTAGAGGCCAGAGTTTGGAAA

Result string:
[3.88, 0.227, 3.02, 4.06]

Data origin: the supplement of paper PMC6555819
